Listed below: Enzyme Activity Endpoint Assay (purified): scIgG values for each entry.
molecular target: pooled human IgG (human IgG1,2,3 and 4)
Numbers only; they are read as ng/µL.

protein	reported
PRT-334 (protein) MTITSVWTKGVTPPTPEDFRENNEDVLHAPYVANQGWYDITKTFDGKDNLLCGAATAGNMLHWWFDQNKEEIERYLKKHPEKQKIIFGNQELFDVKAAIDTKDSQTNSKLFDYFRDKAFPGLSARQLGVFPDLVLDMFINGYYLNLGKTQSTDVNRPYQDKDKRGGIFDAVFTRGVQTTLLTARHDLKNKGLNEISDLIKQELTEGKALALSHTYANVRINHVINLWGADFDAEGELIAIYVTDSDANPSIGMKKYFVGRNANGKVAISAKKIEGDNIGAQVLGLFTLSTGQDIWQKLS	738

Kindly consider the entry below.
Challenge: Looking for the measured Enzyme Activity Endpoint Assay (purified): scIgG of PRT-311 (protein) MQITSVWTKGVTPLTPEQFRENNEDVIHAPYLAHQGWYDITKAFDGKDNLLCGAATAGNMLHWWFDQNKTEIEAYLSKHPEKQKIIFNNQEWFDLKAAIDTKDSQTNSQLFNYFRDKAFPNLSARQLGVMPDLVLDMFINGYYLNVPKTQSTDVNRPYQDKDKRGGIFDAVFTRGDQTTLLTARHDLKNKGLNDISTIIKQELTEGRALALSHTYANVSISHVINLWGADFNAEGNLEAIYVTDSDANASIGMKKYAVGINAHGHVAISAKKIEGENIGAQVLGLFTLSSGKDIWQKLS , can you help?
Response given: 496

All values here come from patent US20250027068.
